- target-or-test-system: HIV-1 Env of isolate MGRM-F1-022 (subtype F) (HIV-1)
- experiment-notes: cell-based or functional assay
Field: IC50 (neutralization). Provide a value for each of the binders that follow.

Notebook: PGT-125 (antibody, V domains shown) VH: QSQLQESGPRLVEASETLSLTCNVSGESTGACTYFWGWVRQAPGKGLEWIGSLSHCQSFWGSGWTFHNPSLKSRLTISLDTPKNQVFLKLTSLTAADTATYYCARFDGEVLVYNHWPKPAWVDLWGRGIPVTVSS VL: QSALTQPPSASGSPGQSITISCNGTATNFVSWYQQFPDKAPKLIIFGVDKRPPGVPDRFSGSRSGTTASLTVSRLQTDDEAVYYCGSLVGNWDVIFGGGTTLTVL , IC50 (neutralization) read as > 50 µg/mL

Notebook: PGT-127 (antibody, V domains shown) VH: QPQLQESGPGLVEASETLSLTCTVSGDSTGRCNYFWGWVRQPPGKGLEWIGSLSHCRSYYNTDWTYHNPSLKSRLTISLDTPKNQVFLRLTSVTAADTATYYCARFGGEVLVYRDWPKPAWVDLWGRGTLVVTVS VL: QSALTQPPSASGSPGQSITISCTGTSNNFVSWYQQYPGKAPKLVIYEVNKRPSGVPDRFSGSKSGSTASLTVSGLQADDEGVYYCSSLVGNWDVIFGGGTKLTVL , IC50 (neutralization) read as > 50 µg/mL

Notebook: PGT-123 (antibody, V domains shown) VH: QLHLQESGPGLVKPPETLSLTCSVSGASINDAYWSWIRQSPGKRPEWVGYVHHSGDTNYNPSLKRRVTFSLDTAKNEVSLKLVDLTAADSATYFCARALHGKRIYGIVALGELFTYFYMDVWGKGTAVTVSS VL: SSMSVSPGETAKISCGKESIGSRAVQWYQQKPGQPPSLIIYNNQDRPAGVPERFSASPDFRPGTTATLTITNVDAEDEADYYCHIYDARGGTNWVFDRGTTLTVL , IC50 (neutralization) read as 0.075 µg/mL

Notebook: PGT-126 (antibody, V domains shown) VH: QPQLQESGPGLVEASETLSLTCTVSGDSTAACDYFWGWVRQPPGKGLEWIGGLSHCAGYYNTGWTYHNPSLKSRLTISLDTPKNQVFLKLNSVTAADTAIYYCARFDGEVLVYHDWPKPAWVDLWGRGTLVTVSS VL: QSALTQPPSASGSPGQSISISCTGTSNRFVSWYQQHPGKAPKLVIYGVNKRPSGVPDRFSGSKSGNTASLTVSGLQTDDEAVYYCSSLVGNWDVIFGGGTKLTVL , IC50 (neutralization) read as > 50 µg/mL

Notebook: PGT-130 (antibody, V domains shown) VH: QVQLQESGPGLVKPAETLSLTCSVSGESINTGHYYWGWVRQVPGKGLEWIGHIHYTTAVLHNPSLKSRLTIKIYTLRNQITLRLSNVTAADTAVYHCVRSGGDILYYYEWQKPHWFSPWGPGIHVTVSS VL: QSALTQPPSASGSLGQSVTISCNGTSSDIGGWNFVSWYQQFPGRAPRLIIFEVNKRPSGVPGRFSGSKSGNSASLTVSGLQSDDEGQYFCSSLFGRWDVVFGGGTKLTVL , IC50 (neutralization) read as > 50 µg/mL
